Measured values drawn from patent US20080287445A1 for this set.

System name: GPR73 (prokineticin 1 receptor) (Homo sapiens, UniProt Q8TCW9)
Sequence (Q8TCW9 whole entry, species assumed): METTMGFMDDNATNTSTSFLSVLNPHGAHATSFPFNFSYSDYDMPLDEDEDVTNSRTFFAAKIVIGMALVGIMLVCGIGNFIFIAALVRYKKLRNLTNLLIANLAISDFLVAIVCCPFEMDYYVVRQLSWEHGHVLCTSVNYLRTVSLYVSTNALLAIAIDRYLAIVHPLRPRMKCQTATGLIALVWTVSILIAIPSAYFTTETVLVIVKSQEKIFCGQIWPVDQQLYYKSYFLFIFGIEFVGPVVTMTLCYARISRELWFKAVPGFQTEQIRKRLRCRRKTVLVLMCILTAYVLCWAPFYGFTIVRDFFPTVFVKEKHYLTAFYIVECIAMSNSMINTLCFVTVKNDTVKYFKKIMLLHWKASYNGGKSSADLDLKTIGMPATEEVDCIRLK
Assay: PK1 functional assay: Ca2+ mobilization screening for PK1 antagonists on the FLIPR
Settings: HEK 293 GPR73 cells; PK1 ligand preparation at its EC50; multiple values = multiple testing; read-out: Ca^2+ Mobilization IC50
# note: boundary value 900 nM maps to n; IC50 below it maps to y

>  <Compound>
COCCCCCn1c(NCc2cccnc2N)nc(=O)n(Cc2ccc(OC(F)F)cc2)c1=O [Cpd 257]

>  <Class assignment>
n

$$$$
>  <Compound>
COc1ccc(Cn2c(NCc3ccc[n+]([O-])c3N)nc(=O)n(Cc3ccc(OC)cc3)c2=O)cc1 [Cpd 32]

>  <Class assignment>
n

$$$$
>  <Compound>
COc1ccc(Cn2c(NCc3cccnc3N)nc(=O)n(Cc3ccc(OC)c([N+](=O)[O-])c3)c2=O)cc1 [Cpd 124]

>  <Class assignment>
y

$$$$
>  <Compound>
COc1ccc(Cn2c(NCc3cccnc3NCCN)nc(=O)n(Cc3ccc(F)cc3)c2=O)cc1 [Cpd 30]

>  <Class assignment>
n

$$$$
